Provide the recorded MIC for the entries that follow.
- Test system: Staphylococcus aureus X400
- method_notes: MIC, standard agar-dilution assay, Staphylococcus aureus X400
- Type: cell-based
- conditions_used: Staphylococcus aureus X400; methicillin-resistant strain; agar dilution
Numbers only, in µg/mL.

CC(=O)O.CC(=O)O.CCC1OC(=O)CC(O)C(C)C(OC2OC(C)C(O)C(N(C)C)C2O)C(CCN)CC(C)C(=O)C=CC(C)=CC1COC1OC(C)C(O)C(OC)C1OC (stereo not drawn) [Compound 51b, 20-DH-DO-20-Aminodesmycosin diacetate] = 8
CCC1OC(=O)CC(O)C(C)C(OC2OC(C)C(O)C(N(C)C)C2O)C(CCS(=O)(=O)c2ccc(C)cc2)CC(C)C(=O)C=CC(C)=CC1COC1OC(C)C(O)C(OC)C1OC (stereo not drawn) [Compound 46] = 0.25

Would you kindly share the measured MIC for CCC1OC(=O)CC(O)C(C)C(OC2OC(C)C(O)C(N(C)C)C2O)C(CCOc2ccc(CO)cc2)CC(C)C(=O)C=CC(C)=CC1COC1OC(C)C(O)C(OC)C1OC (stereo not drawn) [Compound 51a] ?
1

* * *

Task for the reader: assign each of the following molecules its reported MIC.
- Test system: Streptococcus pyogenes C203
- method_notes: MIC, standard agar-dilution assay, Streptococcus pyogenes C203
- Type: cell-based
- conditions_used: Streptococcus pyogenes C203; agar dilution
Lab note: write values as number then unit, every time.

Solved entries (count: 5):
CCC1OC(=O)CC(O)C(C)C(OC2OC(C)C(OC3CC(C)(O)C(O)C(C)O3)C(N(C)C)C2O)C(CCOc2ncnc3ccccc23)CC(C)C(=O)C=CC(C)=CC1COC1OC(C)C(O)C(OC)C1OC (stereo not shown) [Compound 19a] = 4 µg/mL
CC[C@H]1OC(=O)C[C@@H](O)[C@H](C)[C@@H](O[C@@H]2O[C@H](C)[C@H](O)[C@H](N(C)C)[C@H]2O)[C@@H](CCOc2ccccc2)C[C@@H](C)C(=O)/C=C/C(C)=C/[C@@H]1COC1O[C@H](C)[C@@H](O)[C@@H](OC)[C@H]1OC (stereo partly shown) = 2 µg/mL
CCC1OC(=O)CC(O)C(C)C(OC2OC(C)C(O)C(N(C)C)C2O)C(CCN2C(=O)c3ccccc3C2=O)CC(C)C(=O)C=CC(C)=CC1COC1OC(C)C(O)C(OC)C1OC (stereo not shown) = 0.25 µg/mL
CCC(=O)OC1C(OC2C(CCN3C(=O)c4ccccc4C3=O)CC(C)C(=O)C=CC(C)=CC(COC3OC(C)C(O)C(OC)C3OC)C(CC)OC(=O)CC(O)C2C)OC(C)C(O)C1N(C)C (stereo not shown) = 0.5 µg/mL
CCC1OC(=O)CC(O)C(C)C(OC2OC(C)C(O)C(N(C)C)C2O)C(CCOc2ccc(CO)cc2)CC(C)C(=O)C=CC(C)=CC1COC1OC(C)C(O)C(OC)C1OC (stereo not shown) [Compound 51a] = 0.5 µg/mL

For each of the items listed, what is its MIC?
1. CCC(=O)OC1C(OC2C(CCCl)CC(C)C(=O)C=CC(C)=CC(COC3OC(C)C(O)C(OC)C3OC)C(CC)OC(=O)CC(O)C2C)OC(C)C(O)C1N(C)C (stereo not shown)
2. CCC1OC(=O)CC(O)C(C)C(OC2OC(C)C(OC(C)=O)C(N(C)C)C2OC(C)=O)C(CCOc2ccccc2)CC(C)C(=O)C=CC(C)=CC1COC1OC(C)C(O)C(OC)C1OC (stereo not shown)
3. CCC1OC(=O)CC(O)C(C)C(OC2OC(C)C(O)C(N(C)C)C2O)C(CCOc2ccc(CN3CCCCCC3)cc2)CC(C)C(=O)C=CC(C)=CC1COC1OC(C)C(O)C(OC)C1OC (stereo not shown)
4. CCC1OC(=O)CC(O)C(C)C(OC2OC(C)C(O)C(N(C)C)C2O)C(CCS(=O)(=O)c2ccc(C)cc2)CC(C)C(=O)C=CC(C)=CC1COC1OC(C)C(O)C(OC)C1OC (stereo not shown)
5. CCC1OC(=O)CC(O)C(C)C(OC2OC(C)C(O)C(N(C)C)C2O)C(CCOc2ncnc3ccccc23)CC(C)C(=O)C=CC(C)=CC1COC1OC(C)C(O)C(OC)C1OC (stereo not shown)

2 µg/mL
0.5 µg/mL
0.5 µg/mL
1 µg/mL
0.5 µg/mL
